Origin of measurements: PubChem BioAssay AID1159580

- assay-summary: chemical genetic growth profiling, strain panel (AID 1159580);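 note: tested at 20 µM; growth read once vehicle control cultures reached saturation at 30 °C; 1 = growth at the plate median or of vehicle wells; lower values mean less growth of the strain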
- stated-conditions: S. cerevisiae deletion strains, growth OD, locus YNR052C, strain pop2
About 2,000 (36%) of roughly 5,500 compounds were called active. Not shown: some 18% with an inconclusive outcome. Cut-off read from the data, not from the text of the source: active = normalized growth mostly below about 0.91 (no sharp cut-off); inconclusive = no clear call, values can overlap the other calls; inactive = mostly above about 0.92. Some of the results follow.
Select the matching outcome among 1 (active), 0 (inactive)

Below are worked cases with known answers.
| compound | category |
| --- | --- |
| O=[N+]([O-])c1ccc(O)c([N+](=O)[O-])c1 | 1 |
| O=[N+]([O-])c1cc([As](=O)(O)O)ccc1O | 0 |
| CC(C)=CCC[C@](C)(O)C1CC=C(C)CC1 (some centres not stated) | 0 |

Ask | Recorded test outcome, item CC(=O)Nc1cc([As](=O)(O)O)ccc1O
Reply | 0

Ask | Recorded test outcome, item CCCc1occc(=O)c1/C=C/O
Reply | 0

Ask | Recorded test outcome, item C[n+]1cccc(C(=O)[O-])c1
Reply | 0

Ask | Recorded test outcome, item O=[N+]([O-])c1cc(O)c(O)c([N+](=O)[O-])c1
Reply | 0

---

- assay-summary: chemical genetic growth profiling, strain panel (AID 1159580)
- stated-conditions: S. cerevisiae deletion strains, growth OD, locus YDL074C, strain BRE1, active compounds read low
Among all 5,500 compounds or so, about 2,000 (36%) were called active. About 18% were inconclusive and are not listed. This is one part of the list.
readout: normalized growth
Give only the figure.

| compound | normalized growth |
| --- | --- |
| Cc1occc(=O)c1/C=C/O | 1.01 |

Ask | What does the record list as normalized growth for O=C1C=CC2=C3c4cc(O)c(O)cc4CC3(O)COC2=C1O (stereo not given) ?
Reply | 0.898

Ask | What does the record list as normalized growth for C[n+]1cccc(C(=O)[O-])c1 ?
Reply | 1.03

Ask | What does the record list as normalized growth for O=C(O)c1ccccc1Nc1cccc(C(F)(F)F)c1 ?
Reply | 0.768

Ask | What does the record list as normalized growth for Nc1ncn([C@@H]2O[C@H](CO)[C@@H](O)[C@H]2O)c(=O)n1 ?
Reply | 1.03

Ask | What does the record list as normalized growth for CC(=O)O[C@@H]1CC2C(C)(C)C(=O)CC[C@]2(C)C2CC[C@]3(C)C(=CC(=O)O[C@H]3c3ccoc3)[C@@]21C (stereo not given in full) ?
Reply | 0.954

Ask | What does the record list as normalized growth for C=CCC1(C(C)CCC)C(=O)N=C(S)NC1=O (stereo not given) ?
Reply | 1.06

Ask | What does the record list as normalized growth for CCCC(C)C1(CC)C(=O)N=C(S)NC1=O (stereo not given) ?
Reply | 1.06

Ask | What does the record list as normalized growth for O=C(O[C@@H]1Cc2c(O)cc(O)cc2O[C@@H]1c1cc(O)c(O)c(O)c1-c1c([C@H]2Oc3cc(O)cc(O)c3C[C@H]2O)cc(O)c(O)c1O)c1cc(O)c(O)c(O)c1 ?
Reply | 0.204

Ask | What does the record list as normalized growth for C=C(C)[C@H]1CC=C(C(=O)O)CC1 ?
Reply | 0.945

---

Recorded normalized growth by entry
- assay-summary: chemical genetic growth profiling, strain panel (AID 1159580)
- stated-conditions: S. cerevisiae deletion strains, growth OD, locus YAL013W, strain DEP1, active compounds read low
The whole screen tested about 5,500 compounds, of which about 2,000 (36%) were called active. About 18% were inconclusive and are not listed. The list shows a part of the results.
Give only the figure.

Solved cases below.
| compound | normalized growth |
| --- | --- |
| CN1C(CC(=O)c2ccccc2)CCCC1CC(O)c1ccccc1 (configuration not stated) | 1.01 |
| CN(C)C=Nc1nnc(Sc2ncccc2[N+](=O)[O-])s1 | 0.999 |
| CC(C)NC[C@@H](O)c1ccc(O)c(O)c1 | 0.974 |

Ask | What does the record list as normalized growth for Nc1nc2c(ncn2C2C[C@H](O)[C@@H](CO)O2)c(=O)[nH]1 (some centres not stated) ?
Reply | 0.995

Ask | What does the record list as normalized growth for COc1ccccc1OCCNCC(O)COc1cccc2[nH]c3ccccc3c12 (configuration not stated) ?
Reply | 0.999

Ask | What does the record list as normalized growth for CC1CCN(C(=O)CC#N)CC1 ?
Reply | 1

Ask | What does the record list as normalized growth for COc1ccc(OC)c(S(=O)(=O)N2CCc3cc(OC)c(OC)cc3C2C)c1 (configuration not stated) ?
Reply | 1

Ask | What does the record list as normalized growth for O=c1[nH]c(=O)n([C@H]2C[C@H](O)[C@@H](CO)O2)cc1Br ?
Reply | 1

Ask | What does the record list as normalized growth for NC(=O)c1ccccc1N1CCCCC1 ?
Reply | 1.01

Ask | What does the record list as normalized growth for Nc1ncnc2c1ncn2C1C[C@H](O)[C@@H](CO)O1 (some centres not stated) ?
Reply | 0.998

Ask | What does the record list as normalized growth for OC(CNCCc1cccs1)COc1ccccc1 (configuration not stated) ?
Reply | 0.995

Ask | What does the record list as normalized growth for COc1cc2c(c(OC)c1OC)-c1ccc(OC)c(=O)cc1[C@@H](NC(C)=O)CC2 ?
Reply | 1.02

---

- assay-summary: chemical genetic growth profiling, strain panel (AID 1159580)
- stated-conditions: S. cerevisiae deletion strains, growth OD, locus YDL040C, strain nat1, active compounds read low
Screen size: about 5,500 compounds; about 2,000 (36%) were called active. Inconclusive results (about 18%) are left out. The list shows a part of the results.
readout: normalized growth
Give only the figure.

Solved cases below.
| molecule | normalized growth |
| --- | --- |
| CO[C@H]1/C=C/O[C@@]2(C)Oc3c(C)c(O)c4c(O)c(c(/C=N/N5CCN(C)CC5)c(O)c4c3C2=O)NC(=O)/C(C)=C\C=C\C(C)[C@H](O)[C@@H](C)[C@@H](O)[C@@H](C)[C@@H](OC(C)=O)[C@@H]1C (stereo partly drawn) | 1.02 |
| C=C[C@@H](C1=CC(=O)C(OC)=C(OC)C1=O)c1ccccc1 | 1.01 |
| CC1(C)C(=O)C=C[C@@]2(C)C1=C(O)C(=O)[C@]1(C)C2CC[C@@]2(C)[C@H](c3ccoc3)C[C@H]3O[C@]321 (stereo partly drawn) | 0.957 |
| C=CC(C1=CC(=O)C(OC)=CC1=O)c1ccccc1 (stereo not drawn) | 1 |
| OC[C@@H]1CCCN2CCCC[C@H]12 | 1.02 |

Ask | What does the record list as normalized growth for CC(=O)O[C@@H]1C[C@@]2(C)[C@H](c3ccoc3)C[C@H]3O[C@]32[C@]2(C)C(=O)C(O)=C3C(C)(C)C(=O)C=C[C@]3(C)C12 (stereo partly drawn) ?
Reply | 0.953

Ask | What does the record list as normalized growth for C=CC(C1=CC(=O)C(OC)=CC1=O)c1ccc(O)cc1 (stereo not drawn) ?
Reply | 0.999

Ask | What does the record list as normalized growth for O=C(NC(=O)c1c(F)cccc1F)Nc1ccc(Cl)cc1 ?
Reply | 1.03

---

Recorded normalized growth by entry
- assay-summary: chemical genetic growth profiling, strain panel (AID 1159580);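 note: tested at 20 µM; growth read once vehicle control cultures reached saturation at 30 °C; 1 = growth at the plate median or of vehicle wells; lower values mean less growth of the strain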
- stated-conditions: S. cerevisiae deletion strains, growth OD, locus YOL078W, strain AVO1, active compounds read low
The campaign covered roughly 5,500 compounds. About 2,000 (36%) were called active. Not shown: some 18% with an inconclusive outcome. This is one part of the list.
Give only the figure.

Ask | What does the record list as normalized growth for O=C(NCCSCc1cccc(C(F)(F)F)c1)c1ccc(Cl)cc1 ?
Reply | 0.963

Ask | What does the record list as normalized growth for O=C(NCc1ccncc1)c1ccc(-n2cccn2)cc1 ?
Reply | 0.981

Ask | What does the record list as normalized growth for O=C(NCCSCc1cccc(C(F)(F)F)c1)Nc1cccc(C(F)(F)F)c1 ?
Reply | 0.995

Ask | What does the record list as normalized growth for O=C(Nc1ccc(N2CCOCC2)cc1)c1ccc(-n2cccn2)cc1 ?
Reply | 0.972

Ask | What does the record list as normalized growth for Cc1c(C)c(C)c(CSC(N)=Nc2ccc(F)cc2)c(C)c1C ?
Reply | 0.998

Ask | What does the record list as normalized growth for CC(C)c1ccc(NCC(O)CSc2ccccc2)cc1 (stereo unspecified) ?
Reply | 0.958

---

- assay-summary: chemical genetic growth profiling, strain panel (AID 1159580);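 note: tested at 20 µM; growth read once vehicle control cultures reached saturation at 30 °C; 1 = growth at the plate median or of vehicle wells; lower values mean less growth of the strain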
- stated-conditions: S. cerevisiae deletion strains, growth OD, locus YGL173C, strain kem1
Hit rate of the full screen: of about 5,500 compounds, about 2,000 (36%) were called active. Inconclusive results (about 18%) are left out. No stated cut-off is given here; in the data, active means normalized growth mostly below about 0.91 (no sharp cut-off); inconclusive means no clear call, values can overlap the other calls; inactive means mostly above about 0.92. This is one part of the list.
Select the matching outcome among 1.0 (active), 0.0 (inactive)

Ask | Recorded test outcome, item O=C1C=CC2=C3c4cc(O)c(O)cc4C[C@@]3(O)COC2=C1
Reply | 0.0

---

- assay-summary: chemical genetic growth profiling, strain panel (AID 1159580);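 note: tested at 20 µM; growth read once vehicle control cultures reached saturation at 30 °C; 1 = growth at the plate median or of vehicle wells; lower values mean less growth of the strain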
- stated-conditions: S. cerevisiae deletion strains, growth OD, locus YGR229C, strain SMI1
The whole screen tested about 5,500 compounds, of which about 2,000 (36%) were called active. Roughly 18% stayed inconclusive and do not appear here. Rule as the data show it: active = normalized growth mostly below about 0.91 (no sharp cut-off); inconclusive = no clear call, values can overlap the other calls; inactive = mostly above about 0.92. This is one part of the list.
Select the matching outcome among active, inactive

Below are worked cases with known answers.
| molecule | category |
| --- | --- |
| COC(=O)c1cc([N+](=O)[O-])ccc1NC(C)=O | inactive |
| CC(Cc1ccc(O)c(O)c1)C(C)Cc1ccc(O)c(O)c1 (stereo not drawn) | active |

Query molecule follows.
Ask | Recorded test outcome, item O=[N+]([O-])c1ccc2nsnc2c1
Reply | inactive
